Data origin, for the record: paper PMC11931385

Biological target: T1, Rb^P R556Q (human, UniProt P06400 380-788, R556Q)
T1 construct: also called variant 30
T1 sequence (looked up): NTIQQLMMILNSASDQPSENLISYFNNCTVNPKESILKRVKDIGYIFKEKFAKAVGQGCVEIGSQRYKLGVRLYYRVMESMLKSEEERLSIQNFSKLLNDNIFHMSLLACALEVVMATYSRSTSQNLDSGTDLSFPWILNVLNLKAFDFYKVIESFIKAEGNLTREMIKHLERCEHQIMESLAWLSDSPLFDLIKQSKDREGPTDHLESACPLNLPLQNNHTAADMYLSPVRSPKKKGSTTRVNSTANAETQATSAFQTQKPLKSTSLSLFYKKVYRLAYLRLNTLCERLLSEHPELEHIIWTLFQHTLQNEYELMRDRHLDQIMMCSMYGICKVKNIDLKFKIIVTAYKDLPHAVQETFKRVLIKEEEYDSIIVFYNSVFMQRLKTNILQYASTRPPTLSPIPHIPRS
Experiment: fluorescence polarisation; 37 °C, after the 25 °C reading ramped over 7 min to 37 °C and 2 min incubation; unlabeled Rb^P against 1.5 nM TMR-E2F1^TD or 7.5 nM TMR-E7^LxCxE; 25 mM Tris pH 8.0, 200 mM NaCl, 1 mM DTT, 0.1% Tween-20; apparent Kd
Details: both partners purified
No end group written: not given here. TMR = tetramethyl rhodamine dye
Quantity: Kd (nM)
# output: bare number, implied unit nM

[[record]]
binder = "{TMR}-GEGIRDLFDCDFGDLTPLD (also called E2F^TD; source: synthetic peptide, bought: GenScript) [TMR-E2F1^TD, peptide of the E2F1 transactivation domain]"
quantity = "Kd"
measured_number = 48


Now, please, on to the next binder.
IN: Look at this binder and give its reported Kd. DLYCYEQLN (also: TMR label, position not given here, source: synthetic peptide, bought: GenScript) [TMR-E7^LxCxE, LxCxE peptide of the E7 oncoprotein from HPV]
OUT: 13
